// values below are reported relative viability
System: HCC-44
Experiment: relative viability (nuclei count vs DMSO), 5 days (fraction); higher = more cells survive
Settings: first compound 0.2 µM
Give the figure by itself; no unit, no explanation.

Below: 3 compounds and their reported relative viability.
COCC1(CO)C(=O)C2CCN1CC2 (centres undefined) [PRIMA-1MET] + C[C@@H](Oc1cc(-c2cnn(C3CCNCC3)c2)cnc1N)c1c(Cl)ccc(F)c1Cl [Crizotinib] (partner 1 µM)	0.83
COCC1(CO)C(=O)C2CCN1CC2 (centres undefined) [PRIMA-1MET] + Nc1nc2[nH]cc(CCc3ccc(C(=O)N[C@@H](CCC(=O)O)C(=O)O)cc3)c2c(=O)[nH]1 [Pemetrexed] (partner 0.2 µM)	0.748
COCC1(CO)C(=O)C2CCN1CC2 (centres undefined) [PRIMA-1MET] + CC(=O)c1c(C)c2cnc(Nc3ccc(N4CCNCC4)cn3)nc2n(C2CCCC2)c1=O [Palbociclib] (partner 0.5 µM)	1.02

Let us move to another entry and its relative viability.
Asked: // output relative viability; input COCC1(CO)C(=O)C2CCN1CC2 (centres undefined) [PRIMA-1MET] + N=C(N)NC(=N)NCCc1ccccc1 [Phenformin] (partner 250 µM) ; system HCC-44
Given back: 0.265

----------
// values below are reported relative viability
System: NCI-H1755
Test: relative viability (nuclei count vs DMSO), 5 days (fraction); higher = more cells survive
Conditions: first compound 0.2 µM

Below: 3 compounds and their reported relative viability.
COCC1(CO)C(=O)C2CCN1CC2 (stereo not given) [PRIMA-1MET] + Cc1nc(NC(=O)N2CCC[C@H]2C(N)=O)sc1-c1ccnc(C(C)(C)C(F)(F)F)c1 [Alpelisib] (partner 2 µM)	0.974
COCC1(CO)C(=O)C2CCN1CC2 (stereo not given) [PRIMA-1MET] + NC(=O)Nc1cc(-c2cccc(F)c2)sc1C(=O)N[C@H]1CCCNC1 [AZD7762] (partner 0.2 µM)	0.414
COCC1(CO)C(=O)C2CCN1CC2 (stereo not given) [PRIMA-1MET] + O=C(c1cc(Cc2n[nH]c(=O)c3ccccc23)ccc1F)N1CCN(C(=O)C2CC2)CC1 [Olaparib] (partner 8 µM)	0.867

Asked: Return the recorded relative viability value; entry: COCC1(CO)C(=O)C2CCN1CC2 (stereo not given) [PRIMA-1MET] + CCNC(=O)c1noc(-c2cc(C(C)C)c(O)cc2O)c1-c1ccc(CN2CCOCC2)cc1 [Luminespib] (partner 0.01 µM)
Given back: 0.527

Asked: Return the recorded relative viability value; entry: COCC1(CO)C(=O)C2CCN1CC2 (stereo not given) [PRIMA-1MET] + Cc1nc(Nc2ncc(C(=O)Nc3c(C)cccc3Cl)s2)cc(N2CCN(CCO)CC2)n1 [Dasatinib] (partner 0.075 µM)
Given back: 0.476

----------
System: RERF-LC-KJ
Assay: relative viability (nuclei count vs DMSO), 5 days (fraction); higher = more cells survive
Details: first compound 2.53 µM
Rule: relative viability below 0.8 gives true (1). Equal to or above 0.8 gives false (0).

The examples below pair each entry with its known result.
O=c1cc(-c2cccc3c2Sc2ccccc2S3)oc(N2CCOCC2)c1 + Nc1nc2[nH]cc(CCc3ccc(C(=O)N[C@@H](CCC(=O)O)C(=O)O)cc3)c2c(=O)[nH]1 [Pemetrexed] (partner 0.2 µM)	true (1)
COc1nc(C)cnc1NS(=O)(=O)c1cccnc1-c1ccc(-c2nnco2)cc1 [Zibotentan] + NC(=O)Nc1cc(-c2cccc(F)c2)sc1C(=O)N[C@H]1CCCNC1 [AZD7762] (partner 0.2 µM)	false (0)
O=c1cc(-c2cccc3c2Sc2ccccc2S3)oc(N2CCOCC2)c1 + Cc1nc(NC(=O)N2CCC[C@H]2C(N)=O)sc1-c1ccnc(C(C)(C)C(F)(F)F)c1 [Alpelisib] (partner 2 µM)	true (1)

Asked: I'd appreciate it if you could check whether COc1nc(C)cnc1NS(=O)(=O)c1cccnc1-c1ccc(-c2nnco2)cc1 [Zibotentan] + Cc1nc(NC(=O)N2CCC[C@H]2C(N)=O)sc1-c1ccnc(C(C)(C)C(F)(F)F)c1 [Alpelisib] (partner 2 µM) has relative viability smaller than 0.8.
Given back: false (0)

Asked: I'd appreciate it if you could check whether O=c1cc(-c2cccc3c2Sc2ccccc2S3)oc(N2CCOCC2)c1 + N=C(N)NC(=N)NCCc1ccccc1 [Phenformin] (partner 250 µM) has relative viability smaller than 0.8.
Given back: true (1)

Value source: the supplement of paper PMC10307832
